B1: mRNA-splicing (parent)
chain: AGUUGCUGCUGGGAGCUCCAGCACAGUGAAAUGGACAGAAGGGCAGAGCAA

- Variants of: B1
- Run description: exon inclusion enrichment index; higher = more inclusion; WT1 exon 5 minigene, HEK293
exon inclusion enrichment index by entry:
Readout kind: exon inclusion enrichment index

{"Mutant designation": "C6A U7C C9A U10C A20G G21C", "Experimental value": 3.34}
{"Mutant designation": "G5C C6G U7C U10C A39G A40G", "Experimental value": 0.367}
{"Mutant designation": "G5A C6U U7A G8U C9A G12U G13U", "Experimental value": 0.00049}
{"Mutant designation": "G5U G8U C9U A30U A31G", "Experimental value": 0.15}
{"Mutant designation": "G5C C6U G8C C9U U10C G33C G34U", "Experimental value": 1.29}
{"Mutant designation": "G5A U7C G8A U10C C19A A20G", "Experimental value": 0.441}
{"Mutant designation": "G5C C6G U7G G8U U10C", "Experimental value": 1.74}
{"Mutant designation": "G5U G8U C9U C22A", "Experimental value": 0.117}
{"Mutant designation": "G5C C6G U7C U10C G33A", "Experimental value": 0.609}
{"Mutant designation": "G5A C6U U7A G8U C9A G34U A35C", "Experimental value": 0.0139}
{"Mutant designation": "G5A C6G U7G C9A U10G G11A", "Experimental value": 0.00349}
{"Mutant designation": "C6A U7A C9A U10A G38C A39C", "Experimental value": 0.874}
{"Mutant designation": "G5A C6U U7A G8U C9A U10A", "Experimental value": 0.0162}
{"Mutant designation": "G5A C6U U7A G8U C9A G41A G42U", "Experimental value": 0.0659}
{"Mutant designation": "C6A U7G C9A U10A", "Experimental value": 0.108}
{"Mutant designation": "G5C C6A U7C G8A U10A U17A C18G", "Experimental value": 0.0895}
{"Mutant designation": "G5A C6G U7G C9A G33A", "Experimental value": 0.000879}
{"Mutant designation": "G5U G8U C9U U17C C18U", "Experimental value": 0.0755}
{"Mutant designation": "C6A U7A C9A U10A C44A A45G", "Experimental value": 1.09}
{"Mutant designation": "G5C C6U G8C C9U U10C G13A", "Experimental value": 2.18}
{"Mutant designation": "G5C C6G U7C U10C A23G", "Experimental value": 3.57}
{"Mutant designation": "C6A U7C C9A U10C G38U", "Experimental value": 1.44}
